Source: paper PMC8504815

# ASSAY METHOD TEXT: Food effect
# Format: in vivo, human
# CONDITION SET: human, whole blood, oral, 60 mg, MRT, 60 mg single dose, Fasted; mean (SD)
ASSAY METRIC: MRT (h)
The figure you give is taken to be in h; do not add the unit.

Recorded MRT of C=CC(=O)N(C)CCOc1c(N)ncnc1-c1cc(F)cc(NC(=O)c2ccc(C3CC3)cc2F)c1C [Remibrutinib] , please.
2.29

---

# ASSAY METHOD TEXT: Blood pharmacokinetics, multiple ascending dose
# Format: in vivo, human
# CONDITION SET: human, whole blood, oral, 100 mg, AUC0–12 h, MAD 100 mg b.i.d., Day 12; mean (SD)
ASSAY METRIC: AUC(0-t)
# number then unit; no other words

I'd like to know its AUC(0-t). The molecule in question is C=CC(=O)N(C)CCOc1c(N)ncnc1-c1cc(F)cc(NC(=O)c2ccc(C3CC3)cc2F)c1C
496 ng·h/mL
